target: Mouse MHC Class I (mouse B6 class I antigens; D^b or K^b molecules on the surface of RMA-S cells) (mouse); assay: binding of 9mer peptide to mouse B6 (H-2^b) class I antigens; RMA-S cell assay as for Table XLVII
REPORTED_ENDPOINT: Binding Affinity to Mouse MHC Class I (%)

# annotated cases, reported Binding Affinity to Mouse MHC Class I shown
QARMFPNAP [WT1 peptide P124-132 …]    1
FPNAPYLPS [WT1 peptide P128-136 …]    1

(P) SQASSGQAR [WT1 peptide P118-126 …]
(Q) SSGQARMFP [WT1 peptide P121-129 …]
Lowest Binding Affinity to Mouse MHC Class I? choose P or Q Output the label that corresponds to your choice.
Q

(a) PNAPYLPSC [WT1 peptide P129-137 …]
(b) PSQASSGQA [WT1 peptide P117-125 …]
Kindly identify the item with the lower Binding Affinity to Mouse MHC Class I figure among these two: a and b Please indicate the selected item by its label.
a

(1) ASSGQARMF [WT1 peptide P120-128 …]
(2) QASSGQARM [WT1 peptide P119-127 …]
(3) NAPYLPSCL [WT1 peptide P130-138 …]
Please put the entries in order of rising Binding Affinity to Mouse MHC Class I. Return value: ordered labels per request.
1, 2, 3
(1: 1%, 2: 2%, 3: 79%)
